Every entry's value here was drawn from patent US11213507B2.

- Tested on: MRSA biofilm (CBD-635)
- ASSAY DETAILS: In vitro MRSA biofilm assay
- Assay type: cell-based, Staphylococcus aureus
- CONDITION DETAILS: Staphylococcus aureus; biofilm established in vitro with same MRSA strain; read-out: IC50 against the biofilm
RECORDED METRIC: IC50 (µM)
Kindly answer with a numeric value in µM, unit omitted.

# IC50 (molecule: CC(=O)O[C@@H]1O[C@H]2OC(=O)C3=C(C)[C@@H]([C@@]4(C)CCCC(C)(C)C4)CC[C@@H]1[C@H]32 [darwinolide] ) is 33.2
